Experiment: Biodistribution experiment in normal mice
Format: in vivo, mice (ICR, male)
Conditions: brain, 30 min after tail vein injection, normal ICR mice
quantity.name: biodistribution, brain (% ID/g)
Value expressed in % ID/g; do not type the unit.

Returns the measured biodistribution, brain for the input compound. Input: CN(C)c1ccc(/C=N/N=C/c2ccc(OCCOCCOCC[18F])nc2)cc1 [[18F]93] 2.41

I'd like to know its biodistribution, brain. The compound in question is CNc1ccc(/C=N/N=C/c2ccc(OCCOCCOCC[18F])nc2)cc1 [[18F]94] 2.40

====

biodistribution, brain values by entry
Experiment: Biodistribution experiment in normal mice
Assay type: in vivo, mice (ICR, male)
Details: brain, 2 min after tail vein injection, normal ICR mice
Excerpt: Pharmacokinetic properties in mice, especially the initial brain uptake and brain clearance, were studied through distribution experiments in vivo. […]
Please give a number only; it is taken to be in % ID/g.

Example entries begin here.
compound	quantity.name	reading
CNc1ccc(/C=N/N=C/c2ccc(OCCOCCOCC[18F])cc2)cc1 [[18F]92]	biodistribution, brain	7.84
CNc1ccc(/C=N/N=C/c2ccc(OCC[18F])cc2)cc1 [[18F]88]	biodistribution, brain	9.21

Reported biodistribution, brain, compound CNc1ccc(/C=N/N=C/c2ccc(OCCOCCOCC[18F])nc2)cc1 [[18F]94] : ____ 8.59

Return reported biodistribution, brain; argument: CN(C)c1ccc(/C=N/N=C/c2ccc(OCCOCCOCC[18F])cc2)cc1 [[18F]91] 10.39

Bench note: what biodistribution, brain did CN(C)c1ccc(/C=N/N=C/c2ccc(OCCOCCOCC[18F])nc2)cc1 [[18F]93] show? 11.39

Name the recorded biodistribution, brain for CNc1ccc(/C=N/N=C/c2ccc(OCCOCC[18F])cc2)cc1 [[18F]90] . 11.05

Given the entry CN(C)c1ccc(/C=N/N=C/c2ccc(OCCOCC[18F])cc2)cc1 [[18F]89] , report its measured biodistribution, brain. 10.88

I would be grateful if you could share the reported biodistribution, brain for CN(C)c1ccc(/C=N/N=C/c2ccc(OCC[18F])cc2)cc1 [[18F]87] . 10.66

====

Experiment: Biodistribution experiment in normal mice
Format: in vivo, mice (ICR, male)
Conditions: blood, 60 min after tail vein injection, normal ICR mice
Source text: Pharmacokinetic properties in mice, especially the initial brain uptake and brain clearance, were studied through distribution experiments in vivo. […]
quantity.name: biodistribution, blood (% ID/g)
Write down the numeric answer in % ID/g and omit the unit.

compound	biodistribution, blood [% ID/g]
CNc1ccc(/C=N/N=C/c2ccc(OCCOCCOCC[18F])cc2)cc1 [[18F]92]	3.05

Need biodistribution, blood of CN(C)c1ccc(/C=N/N=C/c2ccc(OCCOCCOCC[18F])cc2)cc1 [[18F]91] , thanks. 3.66

# get_value(readout='biodistribution, blood', item= CN(C)c1ccc(/C=N/N=C/c2ccc(OCCOCC[18F])cc2)cc1 [[18F]89] ) 5.42

Can you look up the measured biodistribution, blood of CNc1ccc(/C=N/N=C/c2ccc(OCCOCCOCC[18F])nc2)cc1 [[18F]94] for me? 2.59

====

Assay: Biodistribution experiment in normal mice
Assay type: in vivo, mice (ICR, male)
Conditions: brain, 60 min after tail vein injection, normal ICR mice
Rule: biodistribution, brain of 4 % ID/g or more gives Met; anything lower gives Not met.

molecule	category
CNc1ccc(/C=N/N=C/c2ccc(OCC[18F])cc2)cc1 [[18F]88]	Not met

Quick check, biodistribution, brain >= 4 % ID/g? CNc1ccc(/C=N/N=C/c2ccc(OCCOCCOCC[18F])nc2)cc1 [[18F]94] Not met

Hi, just wondering whether CN(C)c1ccc(/C=N/N=C/c2ccc(OCCOCCOCC[18F])nc2)cc1 [[18F]93] shows biodistribution, brain of 4 % ID/g or higher. Not met

Check the entry CN(C)c1ccc(/C=N/N=C/c2ccc(OCCOCCOCC[18F])cc2)cc1 [[18F]91] : does biodistribution, brain equal or exceed 4 % ID/g? Not met

Check the entry CNc1ccc(/C=N/N=C/c2ccc(OCCOCCOCC[18F])cc2)cc1 [[18F]92] : does biodistribution, brain equal or exceed 4 % ID/g? Not met

Given CN(C)c1ccc(/C=N/N=C/c2ccc(OCC[18F])cc2)cc1 [[18F]87] , state whether its biodistribution, brain is at least 4 % ID/g. Met

Determine whether this molecule has biodistribution, brain no lower than 4 % ID/g: CN(C)c1ccc(/C=N/N=C/c2ccc(OCCOCC[18F])cc2)cc1 [[18F]89] Met
